- target.of.assay: mouse serum albumin (mouse, UniProt P07724 25-608)
- assay.procedure: SPR
Bridges are numbered along the chain shown (N, C = ends). Where no end group is shown, it is not given here.
reported.property: Kd (nM)

RLIEDICLPRWGCLWEDDK (disulfide 7-13; also: Dylight680 conjugated, site not given here) [cABD conjugated to Dylight680] = 32
